- protocol-notes: Time taken to reach maximum concentration in plasma upon oral administration in mouse
- Format: ADME, organism-based
metric: Tmax (min)
Provide only the numeric value, understood in min.

[[record]]
chem_smiles = "Cc1cn(Cc2ccccc2)c2cc(C(=O)Nc3c(Cl)c[n+]([O-])cc3Cl)ccc12"
readout_value = 15


Query molecule follows.
Exercise: For the molecule Cc1cn(CC2CCCCC2)c2cc(C(=O)Nc3c(Cl)c[n+]([O-])cc3Cl)ccc12 , what Tmax is on record?
Solution: 60

* * *

- measurement-target: Phosphodiesterase 4 (Homo sapiens, UniProt P27815+Q08499+Q07343+Q08493)
- protocol-notes: Inhibition of phosphodiesterase type IV (PDE4) activity
- Type: protein assay
Consider the cut-off 10 nM. If the recorded IC50 is strictly smaller, the label is yes (1); if not, the label is no (0).

[[record]]
chem_smiles = "Cc1cn(Cc2ccc(Cl)cc2)c2cc(C(=O)Nc3c(Cl)c[n+]([O-])cc3Cl)ccc12"
qualitative_label = "no (0)"

[[record]]
chem_smiles = "Cc1cn(CCC2CCCCC2)c2cc(C(=O)Nc3c(Cl)c[n+]([O-])cc3Cl)ccc12"
qualitative_label = "yes (1)"

[[record]]
chem_smiles = "Cc1cn(CCCc2ccccc2)c2cc(C(=O)Nc3c(Cl)c[n+]([O-])cc3Cl)ccc12"
qualitative_label = "yes (1)"

[[record]]
chem_smiles = "Cc1cn(Cc2ccc3c(c2)OCO3)c2cc(C(=O)Nc3c(Cl)c[n+]([O-])cc3Cl)ccc12"
qualitative_label = "no (0)"

[[record]]
chem_smiles = "Cc1cn(Cc2ccccc2)c2cc(C(=O)Nc3c(Cl)c[n+]([O-])cc3Cl)ccc12"
qualitative_label = "yes (1)"

[[record]]
chem_smiles = "Cc1cn(CC(C)C)c2cc(C(=O)Nc3c(Cl)c[n+]([O-])cc3Cl)ccc12"
qualitative_label = "no (0)"

[[record]]
chem_smiles = "Cc1cn(C2CCCCC2)c2cc(C(=O)Nc3c(Cl)c[n+]([O-])cc3Cl)ccc12"
qualitative_label = "no (0)"

[[record]]
chem_smiles = "Cc1cn(CC2CCCCC2)c2cc(C(=O)Nc3c(Cl)c[n+]([O-])cc3Cl)ccc12"
qualitative_label = "no (0)"


Exercise: Would you kindly verify if IC50 of Cc1cn(Cc2ccc(C(F)(F)F)cc2)c2cc(C(=O)Nc3c(Cl)c[n+]([O-])cc3Cl)ccc12 is strictly less than 10 nM?
Solution: no (0)

* * *

// values below are reported ED50
- Tested on: Mus musculus
- protocol-notes: In vivo inhibition of LPS induced tumor necrosis factor (TNF-alpha) in mice
- Type: functional
Form field: result (number plus unit)

[[record]]
compound = "COc1ccc(C(=O)Nc2c(Cl)cncc2Cl)cc1OC1CCCC1"
readout_value = "3.1 mg/kg"


Exercise: For the compound COc1ccc(C2CNC(=O)C2)cc1OC1CCCC1 (stereo unspecified) , what ED50 is on record?
Solution: 8.2 mg/kg

Exercise: What would you report for Cc1cn(CC2CCCCC2)c2cc(C(=O)Nc3c(Cl)c[n+]([O-])cc3Cl)ccc12 ?
Solution: 7.1 mg/kg

* * *

// values below are reported Vd
- protocol-notes: Value distribution upon iv administration in mouse
- Assay type: ADME, organism-based
- measurement-setup: in vivo, read-out: Vdss
Provide only the numeric value, understood in L/kg.

[[record]]
chem_smiles = "Cc1cn(CC2CCCCC2)c2cc(C(=O)Nc3c(Cl)c[n+]([O-])cc3Cl)ccc12"
metric = "Vd"
readout_value = 1.7


Query molecule follows.
Exercise: For the molecule Cc1cn(Cc2ccccc2)c2cc(C(=O)Nc3c(Cl)c[n+]([O-])cc3Cl)ccc12 , what Vd is on record?
Solution: 0.9
